Entry source: patent US10098852B2

# methodSummary: Cell viability analysis (WST-1), normal pulmonary epithelial cell line BEAS-2B
# Assay type: cell-based
# appliedConditions: human, BEAS-2B normal pulmonary epithelial cells, BEAS-2B normal cells, test 0510-10 min, read-out: inhibition effect (survival rate of cells)
attributeMeasured: viability at 72 h, 10 µM (%)
Give a bare numeral; the unit % is implied.

Q: Look up viability at 72 h, 10 µM: Oc1ccc(OCc2ccccc2)cc1
Ans: 84.7

====

# methodSummary: Cell viability analysis (WST-1), normal pulmonary epithelial cell line BEAS-2B
# Type: cell-based
# appliedConditions: human, BEAS-2B normal pulmonary epithelial cells, BEAS-2B normal cells, test 0515-10 min, read-out: inhibition effect (survival rate of cells)
attributeMeasured: viability at 72 h, 10 µM (%)
// note: answer is a bare numeric in %

Q: Given the molecule Oc1ccc(OCc2ccccc2)cc1 [Monobenzone] , what is its reported viability at 72 h, 10 µM?
Ans: 74.9

====

# methodSummary: Cell viability analysis (WST-1), normal kidney cell line HEK293
# Assay type: cell-based
# appliedConditions: human, HEK293 normal kidney cells, average of 4 tests, read-out: inhibition effect (survival rate of cells), average
attributeMeasured: viability at 72 h, 10 µM (%)
Hi! Could you send only the number? It should be in %, unit omitted.

Q: Which measured viability at 72 h, 10 µM value corresponds to Oc1ccc(OCc2ccccc2)cc1 ?
Ans: 93

====

# methodSummary: Cell viability analysis (WST-1), human fibroblast cell line HFW
# Format: cell-based
# appliedConditions: HFW fibroblast cells (normal), test 0614-10 min, read-out: inhibition effect (survival rate of cells)
attributeMeasured: viability at 72 h, 10 µM (%)
Give the quantity in %, number only.

Q: I am curious: what viability at 72 h, 10 µM value has been reported for Oc1ccc(OCc2ccccc2)cc1 [Monobenzone] ?
Ans: 74.9

====

# methodSummary: Cell viability analysis (WST-1), normal kidney cell line HEK293
# Assay type: cell-based
# appliedConditions: human, HEK293 normal kidney cells, test 0607-30 min, read-out: inhibition effect (survival rate of cells)
attributeMeasured: viability at 72 h, 10 µM (%)
Return type: number; implicit unit %.

Q: viability at 72 h, 10 µM lookup needed for Oc1ccc(OCc2ccccc2)cc1 , thanks.
Ans: 97.9

====

# methodSummary: Cell viability analysis (WST-1), normal kidney cell line HEK293
# Assay type: cell-based
# appliedConditions: human, HEK293 normal kidney cells, test 0609-30 min, read-out: inhibition effect (survival rate of cells)
# Description: The cell numbers were counted and reseed as 2×10^6 in cell culture plate/flask. Then, the culture medium was added to a volume of 10 ml, and the cells were cultured for 2-3 days. Then, the cells were suspended for loading into 96-well plates. The cell number was 3000/well and the volume of the culture medium was 100 μl each well. Removing the original culture medium from 96-well plate. […] Detecting and calculate the survival rate of each cancer cells with an ELISA reader at OD450 nm.
attributeMeasured: viability at 72 h, 10 µM (%)
# value in %; strip the unit string

Q: What does the record list as viability at 72 h, 10 µM for Oc1ccc(OCc2ccccc2)cc1 [Monobenzone] ?
Ans: 91.8

====

# methodSummary: Cell viability analysis (WST-1), normal pulmonary epithelial cell line BEAS-2B
# Format: cell-based
# appliedConditions: human, BEAS-2B normal pulmonary epithelial cells, BEAS-2B normal cells, test 0517-10 min, read-out: inhibition effect (survival rate of cells)
attributeMeasured: viability at 72 h, 10 µM (%)
Please state the figure in %; there is no need to write the unit.

Q: # input compound: Oc1ccc(OCc2ccccc2)cc1 [Monobenzone] ; wanted: its viability at 72 h, 10 µM
Ans: 56.2

====

# methodSummary: Cell viability analysis (WST-1), normal kidney cell line HEK293
# Format: cell-based
# appliedConditions: human, HEK293 normal kidney cells, test 0605-30 min, read-out: inhibition effect (survival rate of cells)
# Experimental: The cell numbers were counted and reseed as 2×10^6 in cell culture plate/flask. Then, the culture medium was added to a volume of 10 ml, and the cells were cultured for 2-3 days. Then, the cells were suspended for loading into 96-well plates. The cell number was 3000/well and the volume of the culture medium was 100 μl each well. Removing the original culture medium from 96-well plate. […] Detecting and calculate the survival rate of each cancer cells with an ELISA reader at OD450 nm.
attributeMeasured: viability at 72 h, 10 µM (%)
The reply should contain only the number, in %.

Q: Any idea what its viability at 72 h, 10 µM is? The molecule is Oc1ccc(OCc2ccccc2)cc1 [Monobenzone]
Ans: 99.4

====

# methodSummary: Cell viability analysis (WST-1), normal pulmonary epithelial cell line BEAS-2B
# Format: cell-based
# appliedConditions: human, BEAS-2B normal pulmonary epithelial cells, BEAS-2B normal cells, test 0512-10 min, read-out: inhibition effect (survival rate of cells)
attributeMeasured: viability at 72 h, 10 µM (%)
Answer with a number only, understood to be in %.

Q: Request the reported viability at 72 h, 10 µM associated with Oc1ccc(OCc2ccccc2)cc1 [Monobenzone]
Ans: 79.5
